Assay: yeast display, Sf9 membrane polyspecificity reagent, FACS + sequencing; frameworks hold sequencing errors
measurement-kind: polyreactivity (PSR sort gate)

entry-sequence: QVQLVESGGGLVQAGGSLRLSCAASGSTFRYYALGWYRQAPGKERELVAAISTSGGRTYYADSVKGRFTISRDNAKNTVYLQMNSLKPEDTAVYYCNARESRGYAYQTWKYYYWGQGTQVTVSS
polyreactivity (PSR sort gate): high polyreactivity

entry-sequence: QVQLVESGGGLVQAGGSLRLSCAASGSTFSGNAMGWYRQAPGKEMEMVAAISGRGGSTYYADSVKGRFTISRDNAKNTVFLQMKSLKPEDTAVYYCAKRRNTRGAYGYWGQGTQVTVSS
polyreactivity (PSR sort gate): high polyreactivity

entry-sequence: QVQLVESGGCLVQAGGSLRLSCAASGLIFYRYAMGWYRQAPGKERELVAAISWSGGTTYYADSVKGRFTISRDNAKNSVYLQMNSLKPEDTAVYYCAADAVYYHFDYWGQGTQVTVSS
polyreactivity (PSR sort gate): high polyreactivity

entry-sequence: QVQLVESGGGLVQAGGSLRLSCAASGSIFYVYAMGWYRQAPGKERELVASISWGDSSTYYADSVKGRFTISRDNAKNTVYLQMNSLKPDDTAVYYCAADEYRQYALYDYWGQGTQVTVSS
polyreactivity (PSR sort gate): low polyreactivity

From here, focus on the item given below.
QVQLVESGGGLVQAGGSLRLSCAASGRIIGYNAMGWYRQAPGKERELVATITYGGGRTYYADSVKGRFTISRDNAKNTVYLQMNSLKPEDTAVYYCAAKHRFPIPGFGYWGQGTQVTVSS yielded polyreactivity (PSR sort gate) of low polyreactivity
